The measurements presented in this section are drawn from PubChem BioAssay AID900.

molecular target: Caspase-1 (Homo sapiens); assay: qHTS Assay for Allosteric/Competitive Inhibitors of Caspase-1; conditions: Caspase-1 enzyme, Ac-WEHD-AFC fluorogenic rate; series mostly up to 57.5 µM
The campaign covered roughly 75,000 compounds. About 20 (0.03%) were called active. Not shown: some 1% with an inconclusive outcome. Only a sample is shown.
parameter-measured: activity change, negative = inhibition

Solved entries (count: 4):
compound | parameter-measured | measurement
CCS(=O)(=O)N(C)[C@@H]1c2cc(C#N)ccc2OC(C)(C)[C@H]1O | activity change, negative = inhibition | inactive
CCn1ncc(C2=NOC(C(=O)Nc3ccccc3C(=O)OC)C2)c1C (stereo not given) | activity change, negative = inhibition | inactive
CCOc1ccc(Cn2nnc(C(=O)NCc3ccccc3)c2N)cc1 | activity change, negative = inhibition | inactive
CC(=O)Oc1c2c(c3c(c1CC=C(C)C)O[C@@]14C(=CC5CC1C(C)(C)OC4(C/C=C(\C)C(=O)O)C5=O)C3=O)OC(C)(CCC=C(C)C)C=C2 (stereo not given in full) | activity change, negative = inhibition | inactive

# evaluate next
Given item N#Cc1c(/N=C/N2CCCC2)oc(-c2ccccc2)c1-c1ccccc1 , the value recorded as its activity change, negative = inhibition is inactive
